assayed-system: human TDO2 (Homo sapiens, UniProt P48775)
Construct: SW48 cells, which express a high level of endogenous TDO2; endogenous in cells
Sequence (P48775 whole entry): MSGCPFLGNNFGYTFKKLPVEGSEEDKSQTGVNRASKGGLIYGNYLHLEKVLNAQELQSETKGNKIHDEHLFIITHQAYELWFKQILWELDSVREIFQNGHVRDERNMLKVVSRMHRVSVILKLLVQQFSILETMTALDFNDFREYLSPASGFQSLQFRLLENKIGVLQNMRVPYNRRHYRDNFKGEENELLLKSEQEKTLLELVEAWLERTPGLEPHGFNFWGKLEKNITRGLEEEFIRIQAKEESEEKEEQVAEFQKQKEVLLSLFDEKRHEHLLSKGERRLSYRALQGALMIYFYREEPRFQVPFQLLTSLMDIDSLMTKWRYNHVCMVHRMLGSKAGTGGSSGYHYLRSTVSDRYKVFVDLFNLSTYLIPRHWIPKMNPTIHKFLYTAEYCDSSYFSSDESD
experimental-protocol: TDO2 cellular activity assay (SW48 cells, NFK + KYN in supernatant by LCMS)
test-settings: 24 h, 200 µM Trp
pIC50: −log10 of the molar value.
parameter-measured: pIC50

[I] CCOC(=O)c1c(OC)nc2n(c1=O)CCCC2N(C(=O)Nc1ccccc1C(C)C)[C@@H](C)c1ccccc1 (mixture of isomers) [Cpd-2]
[II] CCCc1ccccc1NC(=O)N(C(C)c1ccccc1)C1CCCn2c1nc(OC)c(C(=O)OCC)c2=O (centres unmarked) [Cpd-1]
input: Consider entries I and II . Which has the numerically lower pIC50? Reply with the label of the item you choose.
output: II
